Provenance of the data: ChEMBL document CHEMBL1158076

# Tested on: WI-38
# TEST: Cytotoxicity against human WI38 cells
# Type: functional, cell-based
Structures can show the parent of a compound that is named as a salt.
// IC50 lookup, one value per entry
Enter your answer as a number in µM; do not include the unit.

Guide cases for IC50, answers given:
molecule=C=C1C(=O)O[C@@H]2[C@H]3C(CO)=CC(=O)C3=C(C)CC[C@@H]12 property_measured=IC50 unit_tag=µM value_measured=2.7
molecule=C[C@@H]1C(=O)O[C@H]2[C@H]1CC[C@@](C)(O)[C@@H]1CC(=O)[C@@H](C)[C@H]21 property_measured=IC50 unit_tag=µM value_measured=32
molecule="C=C1[C@@H]2[C@H]3OC(=O)C(=C)[C@@H]3CC[C@@](C)(O)[C@@H]2C[C@@H]1O[C@@H]1O[C@H](COC(=O)Cc2ccc(O)cc2)[C@@H](O)[C@H](O)[C@H]1OC(=O)Cc1ccc(O)cc1 [CHINENSIOLIDE E]" property_measured=IC50 unit_tag=µM value_measured=23

### Prompt Hello, I am looking for reported IC50 with WI-38 for CC(=O)O[C@H]1C(=O)[C@@]2(C)[C@H]([C@H](OC(=O)c3ccccc3)[C@]3(O)C[C@H](OC(=O)[C@H](O)[C@@H](NC(=O)c4ccccc4)c4ccccc4)C(C)=C1C3(C)C)[C@]1(OC(C)=O)CO[C@@H]1C[C@@H]2O . Could you help?
### Response 0.04

### Prompt Hello, I am looking for reported IC50 with WI-38 for COc1cccc2c1C(=O)c1c(O)c3c(c(O)c1C2=O)C[C@@](O)(C(=O)CO)C[C@@H]3O[C@H]1C[C@H](N)[C@H](O)[C@H](C)O1 [DOXORUBICIN HYDROCHLORIDE] . Could you help?
### Response 0.7

### Prompt Hello, I am looking for reported IC50 with WI-38 for CC1=C2[C@H]3OC(=O)[C@@H](C)[C@@H]3CC[C@@](C)(O)[C@@H]2CC1=O . Could you help?
### Response 25

### Prompt Hello, I am looking for reported IC50 with WI-38 for C=C1C(=O)O[C@@H]2[C@H]3[C@H](C)C(=O)C[C@H]3[C@](C)(O)CC[C@@H]12 . Could you help?
### Response 25

### Prompt Hello, I am looking for reported IC50 with WI-38 for C=C1C(=O)O[C@@H]2C3=C(C)C(=O)C[C@H]3[C@](C)(O)CC[C@@H]12 . Could you help?
### Response 24

====

# Test system: WI-38 VA13
# TEST: Cytotoxicity against human VA13 cells
# Format: functional, cell-based
Structures can show the parent of a compound that is named as a salt.
Labelling: IC50 reported below 30 µM becomes MET; at or above becomes NOT MET.

molecule="COc1cccc2c1C(=O)c1c(O)c3c(c(O)c1C2=O)C[C@@](O)(C(=O)CO)C[C@@H]3O[C@H]1C[C@H](N)[C@H](O)[C@H](C)O1 [DOXORUBICIN HYDROCHLORIDE]" assigned_category=MET
molecule="C=C1[C@@H]2[C@H]3OC(=O)C(=C)[C@@H]3CC[C@@](C)(O)[C@@H]2C[C@@H]1O[C@@H]1O[C@H](COC(=O)Cc2ccc(O)cc2)[C@@H](O)[C@H](O)[C@H]1OC(=O)Cc1ccc(O)cc1 [CHINENSIOLIDE E]" assigned_category=MET
molecule=CC1=C2[C@H]3OC(=O)[C@@H](C)[C@@H]3CC[C@@](C)(O)[C@@H]2CC1=O assigned_category="NOT MET"
molecule=C=C1C(=O)O[C@@H]2[C@H]3[C@H](C)C(=O)C[C@H]3[C@](C)(O)CC[C@@H]12 assigned_category=MET
molecule=C=C1C(=O)O[C@@H]2C3=C(C)C(=O)C[C@H]3[C@](C)(O)CC[C@@H]12 assigned_category=MET

### Prompt Find out if reported IC50 for C=C1C(=O)O[C@@H]2[C@H]3C(CO)=CC(=O)C3=C(C)CC[C@@H]12 is less than 30 µM
### Response MET

### Prompt Find out if reported IC50 for C[C@@H]1C(=O)O[C@H]2[C@H]1CC[C@@](C)(O)[C@@H]1CC(=O)[C@@H](C)[C@H]21 is less than 30 µM
### Response NOT MET
